// provenance: patent US5329010A

# ASSAY_TEXT: Repetitive Oral Administration Test for 4 Weeks on Dogs
# Parameters: species or system dog (female beagle)
# CONDITION_DETAILS: in vivo, concluded after rat and dog tests, read-out: toxicologically non-influential dose
REPORTED_PROPERTY: NOAEL at 672 h (mg/kg)
Your answer should be a plain number; it is taken to be in mg/kg.

Answer with the recorded NOAEL at 672 h for the compound listed here: COC1=C(C)C(=O)C(/C=C(\CCCCCc2cccnc2)C(=O)O)=C(C)C1=O [Ex. 3]
100
